Ref: patent US20190248900A1

Target: T1, M13
T1 construct: also called PD1 mutant M13
Experiment: scFv-phage ELISA
# OD490 per record follows
Give only the figure.

| binder | OD490 |
| --- | --- |
| PD1-32A6 (antibody, V domains shown, scFv-phage in the screening ELISA; later whole IgG) VH: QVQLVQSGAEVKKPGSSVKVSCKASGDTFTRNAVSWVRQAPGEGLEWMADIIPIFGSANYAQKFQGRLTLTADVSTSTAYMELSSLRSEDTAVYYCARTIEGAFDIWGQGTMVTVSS VL: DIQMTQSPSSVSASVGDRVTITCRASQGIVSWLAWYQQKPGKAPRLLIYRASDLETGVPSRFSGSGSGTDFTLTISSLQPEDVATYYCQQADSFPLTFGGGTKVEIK | 0.5 |
| PD1-31F3 (antibody, V domains shown, scFv-phage in the screening ELISA; later whole IgG) VH: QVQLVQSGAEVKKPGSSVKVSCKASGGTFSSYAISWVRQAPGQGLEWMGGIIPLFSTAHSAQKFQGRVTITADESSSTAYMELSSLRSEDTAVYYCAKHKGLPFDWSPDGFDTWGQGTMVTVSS VL: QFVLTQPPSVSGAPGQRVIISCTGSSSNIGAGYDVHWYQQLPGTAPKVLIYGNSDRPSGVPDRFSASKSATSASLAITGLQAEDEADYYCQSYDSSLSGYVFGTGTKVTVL | 3.3 |
| PD1-52E8 (antibody, V domains shown, scFv-phage in the screening ELISA; whole IgG in the other assays) VH: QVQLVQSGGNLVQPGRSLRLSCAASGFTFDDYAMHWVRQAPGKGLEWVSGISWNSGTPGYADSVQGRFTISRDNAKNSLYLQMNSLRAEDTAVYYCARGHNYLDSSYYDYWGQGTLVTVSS VL: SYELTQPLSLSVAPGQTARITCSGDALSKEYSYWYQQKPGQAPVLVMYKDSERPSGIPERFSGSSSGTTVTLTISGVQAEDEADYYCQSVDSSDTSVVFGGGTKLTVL | 3.9 |
| PD1-48A9 (antibody, V domains shown, scFv-phage in the screening ELISA; whole IgG in the other assays) VH: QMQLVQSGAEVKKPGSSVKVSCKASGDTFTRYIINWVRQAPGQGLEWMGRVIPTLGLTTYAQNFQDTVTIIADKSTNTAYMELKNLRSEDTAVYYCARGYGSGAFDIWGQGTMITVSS VL: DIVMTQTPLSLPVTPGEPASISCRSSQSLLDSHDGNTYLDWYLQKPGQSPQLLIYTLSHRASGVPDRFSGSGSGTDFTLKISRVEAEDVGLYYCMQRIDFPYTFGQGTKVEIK | 4 |

Moving on to the next binder.
Request: Which OD490 value belongs to PD1-42G4 (antibody, V domains shown, scFv-phage in the screening ELISA; later whole IgG) VH: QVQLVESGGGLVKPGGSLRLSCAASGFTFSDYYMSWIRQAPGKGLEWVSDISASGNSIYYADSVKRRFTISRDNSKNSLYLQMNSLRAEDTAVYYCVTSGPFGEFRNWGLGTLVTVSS VL: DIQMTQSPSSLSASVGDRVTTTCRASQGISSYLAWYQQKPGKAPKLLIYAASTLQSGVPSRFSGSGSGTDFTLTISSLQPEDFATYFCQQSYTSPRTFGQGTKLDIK ?
Result: 3.7
